- System Tested: DRD5 (Homo sapiens)
- Construct: purchased Promega (in-house HiBiT-GPCR construct library, NanoBRET)
- Sequence (P21918 whole entry): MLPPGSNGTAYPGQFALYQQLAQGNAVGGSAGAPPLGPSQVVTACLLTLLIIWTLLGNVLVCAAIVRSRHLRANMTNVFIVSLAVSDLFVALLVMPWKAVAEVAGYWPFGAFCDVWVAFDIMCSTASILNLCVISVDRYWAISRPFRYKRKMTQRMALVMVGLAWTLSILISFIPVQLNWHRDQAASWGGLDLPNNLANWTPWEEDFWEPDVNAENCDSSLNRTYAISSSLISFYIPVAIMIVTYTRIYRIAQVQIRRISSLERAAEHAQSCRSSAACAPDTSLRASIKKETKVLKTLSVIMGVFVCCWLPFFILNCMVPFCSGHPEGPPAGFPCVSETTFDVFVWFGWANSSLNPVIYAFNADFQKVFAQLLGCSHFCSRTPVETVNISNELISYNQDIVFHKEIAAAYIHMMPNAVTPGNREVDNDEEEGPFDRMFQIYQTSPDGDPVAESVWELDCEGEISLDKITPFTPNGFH
- Test Name: NanoBRET screen HiBiT-DRD5 in HEK293
- Type: binding
- Run Parameters: DRD5; tracer 0.1μM
Below: a set of entries, each annotated with reported NanoBRET Fold Response.

Worked examples follow.
>>> reading("COc1ccccc1N1CCN(CCCCN2C(=O)c3ccc(CNC(=O)CCOCCNC(=O)c4ccc(CNC(=O)CCc5ccc6n5[B-](F)(F)[N+]5=C(c7ccc[nH]7)C=CC5=C6)cc4)cc3C2=O)CC1")
1.05
>>> reading("N#CN=C(NCCCOc1cccc(CN2CCCCC2)c1)NCCNC(=O)CCOCCOCCOCCOCCNC(=O)CCc1ccc2n1[B-](F)(F)[N+]1=C(c3ccc[nH]3)C=CC1=C2")
1.02
>>> reading("CC(C)N(CC[C@H](c1ccccc1)c1cc(CCNC(=O)c2ccc(CNC(=O)CCc3ccc4n3[B-](F)(F)[N+]3=C(c5ccc[nH]5)C=CC3=C4)cc2)ccc1O)C(C)C")
1.02

Measured on DRD5 (Homo sapiens), O=C(CCOCCOCCOCCOCCNC(=O)CCc1ccc2n1[B-](F)(F)[N+]1=C(c3ccc[nH]3)C=CC1=C2)NCCCN1CCN(C2=Nc3ccccc3Oc3ccc(Cl)cc32)CC1 has a documented NanoBRET Fold Response of 1.25

Measured on DRD5 (Homo sapiens), O=C(CCc1ccc2n1[B-](F)(F)[N+]1=C(c3ccc[nH]3)C=CC1=C2)NCc1ccc(C(=O)NCCOCCC(=O)N[C@@H]2CC[C@@]3(O)[C@H]4Cc5ccc(O)c6c5[C@@]3(CCN4CC3CC3)[C@H]2O6)cc1 [Naltrexone-3-NB590] has a documented NanoBRET Fold Response of 1.25

Measured on DRD5 (Homo sapiens), CCCn1c(=O)c2[nH]c(-c3ccc(OCC(=O)NCCNC(=O)CCOCCNC(=O)c4ccc(CNC(=O)CCc5ccc6n5[B-](F)(F)[N+]5=C(c7ccc[nH]7)C=CC5=C6)cc4)cc3)nc2n(CCC)c1=O has a documented NanoBRET Fold Response of 0.99
